Quick reference for remaining activity at 250 µM among some compounds
biological target: CaFADS FMNAT activity (Corynebacterium ammoniagenes); construct: Recombinant CaFADS was overexpressed in BL21 (DE3) E. coli cells and purified as previously described; made in house; host or cells: E. coli BL21 (DE3); experiment: FMNAT activity of CaFADS: residual activity, IC50, inhibition mechanism (HPLC); type: biochemical; settings: pH 7, read-out: % Residual FMNAT activity
Sequence (Q59263 whole entry): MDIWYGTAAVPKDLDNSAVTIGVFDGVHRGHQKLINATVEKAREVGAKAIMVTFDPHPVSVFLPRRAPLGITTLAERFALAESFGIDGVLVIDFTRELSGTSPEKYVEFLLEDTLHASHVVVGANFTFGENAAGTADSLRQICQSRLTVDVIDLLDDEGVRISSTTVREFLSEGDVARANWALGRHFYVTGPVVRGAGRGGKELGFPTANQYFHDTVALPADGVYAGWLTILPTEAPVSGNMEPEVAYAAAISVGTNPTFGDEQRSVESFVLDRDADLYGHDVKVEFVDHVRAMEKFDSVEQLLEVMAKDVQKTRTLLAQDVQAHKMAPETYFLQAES

// below: answered compounds
- Given smiles: "CCc1oc2ccccc2c1C(=O)c1cc(Br)c(O)c(Br)c1"
  Result: "≤ 5%"
- Given smiles: "CC/C(=C(/CC)c1ccc(O)cc1)c1ccc(O)cc1"
  Result: "5 to 50%"
- Given smiles: "O=C(O)c1cc(/N=N/c2ccc(S(=O)(=O)Nc3ccccn3)cc2)ccc1O"
  Result: "5 to 50%"
- Given smiles: "Cc1cc2c(C(C)C)c(O)c(O)c(C=O)c2c(O)c1-c1c(C)cc2c(C(C)C)c(O)c(O)c(C=O)c2c1O"
  Result: "≤ 5%"
- Given smiles: "Cc1c(Nc2ncccc2C(=O)O)cccc1C(F)(F)F"
  Result: "≤ 5%"

Prompt: If you can, please state the reported remaining activity at 250 µM value of `COc1cc(-c2ccc(/N=N/c3ccc4c(S(=O)(=O)O)cc(S(=O)(=O)O)c(N)c4c3O)c(OC)c2)ccc1/N=N/c1ccc2c(S(=O)(=O)O)cc(S(=O)(=O)O)c(N)c2c1O` .
Completion: ≤ 5%

Prompt: Moving on to the next compound: `C/C=C(/C(=C/C)c1ccc(O)cc1)c1ccc(O)cc1`
Completion: 5 to 50%

----------
molecular target: SpnFADS FMNAT activity (Streptococcus pneumoniae, UniProt A0A0H2UPY5); test: biochemical; settings: SpnFADS; 100 μM of each compound; 25 °C; n = 3, mean ± SD; read-out: FMNAT activity Res. activity
Where a name gives a salt, the structure may show the parent alone.
Below, each entry is listed with its recorded activity at 100 µM.
Write it as a number; the unit % goes unstated.

- Compound: "CCCCC(CC)CNC(=N)NC(=N)NCCCCCCNC(=N)NC(=N)NCC(CC)CCCC (centres unmarked) [HTS hit 33, alexidine dihydrochloride]"
  Result type: "activity at 100 µM"
  Scale unit: "%"
  Quantitative result: 93
- Compound: "COc1cc(-c2ccc(/N=N/c3ccc4c(S(=O)(=O)O)cc(S(=O)(=O)O)c(N)c4c3O)c(OC)c2)ccc1/N=N/c1ccc2c(S(=O)(=O)O)cc(S(=O)(=O)O)c(N)c2c1O [HTS hit 24, Chicago sky blue 6B]"
  Result type: "activity at 100 µM"
  Scale unit: "%"
  Quantitative result: 0
- Compound: "O=C(O)CCc1nc(-c2ccccc2)c(-c2ccccc2)o1 [HTS hit 43, oxaprozin]"
  Result type: "activity at 100 µM"
  Scale unit: "%"
  Quantitative result: 100
- Compound: "CCCCCCCCCCCCCCCC[N+](C)(C)CCN(Cc1ccc(OC)cc1)c1ncccn1 [HTS hit 9, thonzonium bromide]"
  Result type: "activity at 100 µM"
  Scale unit: "%"
  Quantitative result: 7

--- query ---
Prompt: # get_value(readout='activity at 100 µM', item= CC(C)n1c(/C=C/C(O)CC(O)CC(=O)O)c(-c2ccc(F)cc2)c2ccccc21 (centres unmarked) [HTS hit 37, fluvastatin sodium salt] )
Completion: 0

----------
molecular target: SpnFADS RFK activity (Streptococcus pneumoniae); experiment: biochemical
Sequence (A0A0H2UPY5 entry or part of it): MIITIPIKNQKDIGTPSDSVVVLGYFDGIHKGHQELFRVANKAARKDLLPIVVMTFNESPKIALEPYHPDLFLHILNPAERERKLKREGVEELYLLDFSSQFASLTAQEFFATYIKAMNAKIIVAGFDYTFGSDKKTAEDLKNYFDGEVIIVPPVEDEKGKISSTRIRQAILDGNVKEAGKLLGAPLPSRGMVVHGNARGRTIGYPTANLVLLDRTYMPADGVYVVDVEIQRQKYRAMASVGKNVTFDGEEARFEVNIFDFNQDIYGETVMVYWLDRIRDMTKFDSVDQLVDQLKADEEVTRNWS
pIC50: −log10 of the molar value. Where a name gives a salt, the structure may show the parent alone.
Result type: pIC50

Prompt: Give pIC50 (SpnFADS RFK activity (Streptococcus pneumoniae)) of the following compound: CC(C)n1c(/C=C/C(O)CC(O)CC(=O)O)c(-c2ccc(F)cc2)c2ccccc21 (stereo not shown) [HTS hit 37, fluvastatin sodium salt]
Completion: < 4.00

----------
test system: S. pneumoniae ATCC 49619; experiment: MIC by resazurin microplate assay (broth microdilution); assay type: cell-based, Streptococcus pneumoniae; conditions: Streptococcus pneumoniae, ATCC49619, 10 h; read-out: Minimal inhibitory concentration (MIC) S. pneumoniae
Where a name gives a salt, the structure may show the parent alone.
Result type: MIC (µM)
Respond numerically; units are µM and should not be typed.

The cases that follow already have their MIC on record.
- Molecule: "C/C=C(/C(=C/C)c1ccc(O)cc1)c1ccc(O)cc1"
  Tested system: "S. pneumoniae ATCC 49619"
  Scale unit: "µM"
  MIC: 64
- Molecule: "CCCCC(CC)CNC(=N)NC(=N)NCCCCCCNC(=N)NC(=N)NCC(CC)CCCC (stereo not drawn) [HTS hit 33, alexidine dihydrochloride]"
  Tested system: "S. pneumoniae ATCC 49619"
  Scale unit: "µM"
  MIC: 0.5

For the next question, use this molecule.
Prompt: Fill in the blank: the reported MIC of `CC/C(=C(/CC)c1ccc(O)cc1)c1ccc(O)cc1` is ____.
Completion: 64
